TARGET_DESC: UniProt P0A070
ASSAY_COMMENT: biochemical
Square brackets hold non-standard residues; d marks the D form. Peptide text beside a SMILES is read from it. * marks the point of attachment. boroAla((+)-pinanediol) = C[C@H](N*)B1O[C@@H]2C[C@@H]3C[C@@H](C3(C)C)[C@]2(C)O1; Biphenylcarbonyl(4'-Bu) = CCCCc1ccc(-c2ccc(C(=O)*)cc2)cc1; X1 = C[C@H](N*)B1OC2C[C@@H]3C[C@@H](C3(C)C)[C@]2(C)O1; Tle = CC(C)(C)[C@H](N)C(=O)O; Dap = NC[C@H](N)C(=O)O; βAla = NCCC(=O)O
OBSERVATION_TYPE: IC50 (nM)
Give bare numbers, in nM.

# annotated cases, reported IC50 shown
| COMPOUND | OBSERVATION_TYPE | TEST_RESULT |
| --- | --- | --- |
| CCCCc1ccc(-c2ccc(C(=O)N[C@@H](CCCCN)C(=O)N[C@@H](C)C(=O)N[C@@H](CC(C)C)C(=O)N[C@@H](C)B(O)O)cc2)cc1 [Compound 191] | IC50 | 50000 |
| CCCCc1ccc(-c2ccc(C(=O)NCCC(=O)N[C@@H](CCCCN)C(=O)N3CCC[C@H]3C(=O)N[C@@H](C)C(=O)N[C@@H](CC(N)=O)C(=O)N[C@@H](C)B3OC4C[C@@H]5C[C@@H](C5(C)C)[C@]4(C)O3)cc2)cc1 (stereo partly shown) [Compound 208] ({Biphenylcarbonyl(4'-Bu)-βAla}-KPAN-X1) | IC50 | 5.7 |
| CCCCc1ccc(-c2ccc(C(=O)NCCC(=O)N[C@@H](CCCCN)C(=O)N[C@H](C(=O)N[C@@H](C)C(=O)N[C@@H](CC(N)=O)C(=O)N[C@@H](C)B3OC4C[C@@H]5C[C@@H](C5(C)C)[C@]4(C)O3)C(C)(C)C)cc2)cc1 (stereo partly shown) [Compound 210] ({Biphenylcarbonyl(4'-Bu)-βAla}-K[Tle]AN-X1) | IC50 | 16 |

// moving on: another record for IC50
-- ask Name the reported IC50 value associated with the compound CCCCc1ccc(-c2ccc(C(=O)N[C@@H](CN)C(=O)N[C@H](C(=O)N[C@@H](C)C(=O)N[C@@H](CCCCN)C(=O)N[C@@H](C)B3O[C@@H]4C[C@@H]5C[C@@H](C5(C)C)[C@]4(C)O3)[C@@H](C)O)cc2)cc1 [Compound 149] ({Biphenylcarbonyl(4'-Bu)}-[Dap]TAK-{boroAla((+)-pinanediol)})
-- reply 129

----------
TARGET_DESC: E. coli SPase (Escherichia coli)
Sequence (P00803 whole entry): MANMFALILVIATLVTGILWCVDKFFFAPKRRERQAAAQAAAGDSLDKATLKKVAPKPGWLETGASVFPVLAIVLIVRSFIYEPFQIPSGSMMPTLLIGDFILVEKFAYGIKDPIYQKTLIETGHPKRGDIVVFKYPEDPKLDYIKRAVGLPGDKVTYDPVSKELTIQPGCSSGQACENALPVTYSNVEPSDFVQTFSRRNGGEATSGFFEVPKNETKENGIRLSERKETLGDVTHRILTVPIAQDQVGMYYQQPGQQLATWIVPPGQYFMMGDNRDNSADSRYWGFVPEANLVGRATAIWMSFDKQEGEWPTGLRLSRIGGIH
ASSAY_COMMENT: Biochemical SPase activity assay (fluorogenic peptide substrate), E. coli enzyme
Numbered stars: 1 amine (or outer) side, 2 acyl side, 3 side chain; on linkers, the order of the positions; unused ones are H or OH. Square brackets hold non-standard residues; d marks the D form. Peptide text beside a SMILES is read from it. * marks the point of attachment. Biphenylcarbonyl(4'-Bu) = CCCCc1ccc(-c2ccc(C(=O)*)cc2)cc1; X1 = C[C@H](N*)B1OC2C[C@@H]3C[C@@H](C3(C)C)[C@]2(C)O1; X10 = CCCCc1ccc(-c2ccc(N*)cc2)cc1; Tle = CC(C)(C)[C@H](N)C(=O)O; boroAla = C[C@H](N*)B(O)O; Dab = NCC[C@H](N)C(=O)O; CO = O=C([*:1])[*:2]; βAla = NCCC(=O)O
Exam item: assign class 1 to entries whose IC50 is below 10 nM and class 0 to entries at or above 10 nM. Note that a value of exactly 10 nM receives class 0.

Look over these answered cases.
| COMPOUND | TARGET_DESC | LABEL_VALUE |
| --- | --- | --- |
| CCCCc1ccc(-c2ccc(CN3CCC(C(=O)N[C@H](C(=O)N[C@@H](C)C(=O)N[C@@H](CCCCN)C(=O)N[C@@H](C)B4OC5C[C@@H]6C[C@@H](C6(C)C)[C@]5(C)O4)[C@@H](C)O)CC3)cc2)cc1 (stereo partly shown) | E. coli SPase (Escherichia coli) | class 0 |
| CCCCc1ccc(-c2ccc(C(=O)NCCC(=O)N[C@@H](CCCCN)C(=O)N[C@H](C(=O)N[C@@H](C)C(=O)N[C@@H](CC(N)=O)C(=O)N[C@@H](C)B3OC4C[C@@H]5C[C@@H](C5(C)C)[C@]4(C)O3)C(C)(C)C)cc2)cc1 (stereo partly shown) [Compound 210] ({Biphenylcarbonyl(4'-Bu)-βAla}-K[Tle]AN-X1) | E. coli SPase (Escherichia coli) | class 0 |
| CCCCc1ccc(-c2ccc(C(=O)N[C@@H](CCCCN)C(=O)N[C@@H](Cc3c[nH]cn3)C(=O)N[C@@H](C)C(=O)N[C@@H](CC(N)=O)C(=O)N[C@@H](C)B(O)O)cc2)cc1 [Compound 136] ({Biphenylcarbonyl(4'-Bu)}-KHAN-boroAla) | E. coli SPase (Escherichia coli) | class 0 |
| CCCCc1ccc(-c2ccc(NC(=O)N[C@@H](CCCCN)C(=O)N[C@H](C(=O)N[C@@H](C)C(=O)N[C@@H](CC(N)=O)C(=O)N[C@@H](C)B3OC4C[C@@H]5C[C@@H](C5(C)C)[C@]4(C)O3)[C@@H](C)O)cc2)cc1 (stereo partly shown) [Compound 263] ({X10-CO}-KTAN-X1) | E. coli SPase (Escherichia coli) | class 0 |
| CCCCc1ccc(-c2ccc(C(=O)N[C@@H](CCN)C(=O)N[C@H](C(=O)N[C@@H](C)C(=O)N[C@@H](CCCCN)C(=O)N[C@@H](C)B(O)O)[C@@H](C)O)cc2)cc1 [Compound 178] ({Biphenylcarbonyl(4'-Bu)}-[Dab]TAK-boroAla) | E. coli SPase (Escherichia coli) | class 1 |

-- ask is_below(IC50, 10 nM) for CCCCc1ccc(-c2cnc(C(=O)N[C@@H](CCN)C(=O)N[C@H](C(=O)N[C@@H](C)C(=O)N[C@@H](CCCCN)C(=O)N[C@@H](C)B3OC4C[C@@H]5C[C@@H](C5(C)C)[C@]4(C)O3)[C@@H](C)O)nc2)cc1 (stereo partly shown) ?
-- reply class 0

-- ask Try CCCCc1ccc(-c2ccc(C(=O)NCCC(=O)N[C@@H](CCCCN)C(=O)N[C@H](C(=O)N[C@@H](C)C(=O)N[C@@H](Cc3ccc(O)cc3)C(=O)N[C@@H](C)B3OC4C[C@@H]5C[C@@H](C5(C)C)[C@]4(C)O3)[C@@H](C)O)cc2)cc1 (stereo partly shown) [Compound 225] ({Biphenylcarbonyl(4'-Bu)-βAla}-KTAY-X1) next.
-- reply class 1

----------
TARGET_DESC: S. aureus SPase (Staphylococcus aureus)
Sequence (P0A070 whole entry): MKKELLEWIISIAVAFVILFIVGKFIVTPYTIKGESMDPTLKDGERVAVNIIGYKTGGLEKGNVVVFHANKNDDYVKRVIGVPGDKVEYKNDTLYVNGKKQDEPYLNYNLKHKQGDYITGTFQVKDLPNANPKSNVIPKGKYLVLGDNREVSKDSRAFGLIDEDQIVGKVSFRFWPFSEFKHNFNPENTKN
ASSAY_COMMENT: biochemical
Square brackets hold non-standard residues; d marks the D form. Peptide text beside a SMILES is read from it. * marks the point of attachment. boroAla((+)-pinanediol) = C[C@H](N*)B1O[C@@H]2C[C@@H]3C[C@@H](C3(C)C)[C@]2(C)O1; Biphenylcarbonyl(4'-Bu) = CCCCc1ccc(-c2ccc(C(=O)*)cc2)cc1; X11 = CC[C@H](N*)B1OC2C[C@@H]3C[C@@H](C3(C)C)[C@]2(C)O1; X1 = C[C@H](N*)B1OC2C[C@@H]3C[C@@H](C3(C)C)[C@]2(C)O1; X4 = CCCCc1ccc(-c2c[nH]c(C(=O)*)c2)cc1; NMeE = CN[C@@H](CCC(=O)O)C(=O)O; Dab = NCC[C@H](N)C(=O)O; Abu = CC[C@H](N)C(=O)O; βAla = NCCC(=O)O
OBSERVATION_TYPE: IC50 (nM)
Give bare numbers, in nM.

| COMPOUND | OBSERVATION_TYPE | TEST_RESULT |
| --- | --- | --- |
| CCCCc1ccc(-c2ccc(C(=O)N[C@H](CO)C(=O)N[C@H](C)C(=O)NCC(=O)N(C)[C@@H](CCC(=O)O)C(=O)N[C@@H](C)C(=O)N[C@@H](CC(N)=O)C(=O)N[C@@H](C)B3OC4C[C@@H]5C[C@@H](C5(C)C)[C@]4(C)O3)cc2)cc1 (stereo partly drawn) [Compound 229] ({Biphenylcarbonyl(4'-Bu)}-[dS][dA]G[NMeE]AN-X1) | IC50 | 220 |

Would you be so kind as to report IC50 for each listed record?
1. CCCCc1ccc(-c2c[nH]c(C(=O)N[C@@H](CCN)C(=O)N[C@H](C(=O)N[C@@H](C)C(=O)N[C@@H](CCCCN)C(=O)N[C@@H](C)B3O[C@@H]4C[C@@H]5C[C@@H](C5(C)C)[C@]4(C)O3)[C@@H](C)O)c2)cc1 [Compound 247] (X4-[Dab]TAK-{boroAla((+)-pinanediol)})
2. CCCCc1ccc(-c2ccc(C(=O)NCCC(=O)N[C@@H](CCCCN)C(=O)N[C@H](C(=O)N[C@@H](CC)C(=O)N[C@@H](CC(N)=O)C(=O)N[C@@H](CC)B3OC4C[C@@H]5C[C@@H](C5(C)C)[C@]4(C)O3)[C@@H](C)O)cc2)cc1 (stereo partly drawn) [Compound 205] ({Biphenylcarbonyl(4'-Bu)-βAla}-KT[Abu]N-X11)

-- reply
1. 110
2. 20
